Test system: Candida albicans (ATCC 36232)
Test: MIC test, antifungal activity
Type: cell-based
Settings: Table 8, TEDFK derivatives of group 1
Non-standard residues stand in square brackets, D forms with d. No end group written: not given here. Aib = CC(C)(N)C(=O)O
Readout kind: MIC C. albicans (µg/mL)
The figure you give is taken to be in µg/mL; do not add the unit.

>  <Substance>
KFYCNGKRICICR--NH2 (KFYCNGKRICICR-NH2; cysteine pairing not given here) [M13]

>  <MIC C. albicans, µg/mL>
6.25

$$$$
>  <Substance>
KPYCNGKRVCVCR--NH2 (KPYCNGKRVCVCR-NH2; cysteine pairing not given here) [M2]

>  <MIC C. albicans, µg/mL>
6.25

$$$$
>  <Substance>
KKYCNKKCVCK--NH2 [M5] (KKYCNKKCVCK-NH2; cysteine pairing not given here)

>  <MIC C. albicans, µg/mL>
3.12

$$$$
>  <Substance>
KFY[Aib]KGKRVCVCR-NH2 (cysteine pairing not given here) [M17]

>  <MIC C. albicans, µg/mL>
6.25

$$$$
>  <Substance>
KWYCNGKRVCVCR--NH2 (KWYCNGKRVCVCR-NH2; cysteine pairing not given here) [M26]

>  <MIC C. albicans, µg/mL>
6.25

$$$$

Req: If you can, please state the reported MIC C. albicans value of KKYCNXRVCVCR--NH2 [M4] .
Resp: 3.12

Req: May I ask what MIC C. albicans has been recorded for KKYCNGKRVCVCR--NH2 (KKYCNGKRVCVCR-NH2; cysteine pairing not given here) [M1] ?
Resp: 3.12

Req: Name the reported MIC C. albicans value associated with the substance KFYCNGKRVCVCR--NH2 [TEDFK] (KFYCNGKRVCVCR-NH2; cysteine pairing not given here)
Resp: 6.25

Req: Form field: reported MIC C. albicans of KFYCNGKRV[Aib]VCK-NH2 (cysteine pairing not given here) [M25]
Resp: 6.25

Req: Would you kindly share the measured MIC C. albicans for YCNGKRVCVCRKK--NH2 (YCNGKRVCVCRKK-NH2; cysteine pairing not given here) [M15] ?
Resp: 6.25

Req: Using the record for KKYCNKKCVCK--NH2 [M6] (KKYCNKKCVCK-NH2; cysteine pairing not given here) , report its MIC C. albicans.
Resp: 3.12

Req: So what does the record say about MIC C. albicans for KFYCNGKRVCVCW--NH2 (KFYCNGKRVCVCW-NH2; cysteine pairing not given here) [M31] ?
Resp: 12.5

Req: # MIC C. albicans lookup, item KFY[Aib]KKVCVCK-NH2 (cysteine pairing not given here) [M8]
Resp: 3.12

Req: Return reported MIC C. albicans; argument: KFYCDGKRVCVCR--NH2 (KFYCDGKRVCVCR-NH2; cysteine pairing not given here) [M18]
Resp: 12.5

Req: Need MIC C. albicans of KYCNGKRVCVCRK--NH2 (KYCNGKRVCVCRK-NH2; cysteine pairing not given here) [M16] , thanks.
Resp: 6.25

Req: Recorded MIC C. albicans for WFYCNGKRVCVCR--NH2 (WFYCNGKRVCVCR-NH2; cysteine pairing not given here) [M29] , please?
Resp: 25

Req: Which measured MIC C. albicans value corresponds to FKYCNGKRVCVCR--NH2 (FKYCNGKRVCVCR-NH2; cysteine pairing not given here) [M3] ?
Resp: 12.5

Req: May I ask what MIC C. albicans has been recorded for KFYCNWKRVCVCR--NH2 (KFYCNWKRVCVCR-NH2; cysteine pairing not given here) [M30] ?
Resp: 12.5

----------
System: Staphylococcus aureus (ATCC 6538)
Assay: MIC test, antibacterial activity
Assay type: cell-based
Conditions: Table 3, addition of an amino acid to N-terminal of TED
Experimental: Antibacterial and antifungal activities of the peptides were determined by employing MIC test as follows: […] Antibacterial activity of peptide was determined analogously as above, with an exception that Staphylococcus aureus (ATCC 6538) selected as a test organism was cultured on M-3 medium(Gibco, USA) at 37° C. and cell number was adjusted to 2×10^8 cells before 100-fold dilution.
No end group written: not given here.
Entries and their MIC S. aureus values follow.
I only need the number, in µg/mL, no unit after it.

# annotated cases, reported MIC S. aureus shown
>  <Substance>
LYCNGKRVCVCR--NH2 (LYCNGKRVCVCR-NH2; cysteine pairing not given here) [TEDL]

>  <Units label>
µg/mL

>  <MIC S. aureus>
5

$$$$
>  <Substance>
KYCNGKRVCVCR--NH2 (KYCNGKRVCVCR-NH2; cysteine pairing not given here) [TEDK]

>  <Units label>
µg/mL

>  <MIC S. aureus>
5

$$$$
>  <Substance>
SYCNGKRVCVCR--NH2 (SYCNGKRVCVCR-NH2; cysteine pairing not given here) [TEDS]

>  <Units label>
µg/mL

>  <MIC S. aureus>
10

$$$$
>  <Substance>
WYCNGKRVCVCR--NH2 (WYCNGKRVCVCR-NH2; cysteine pairing not given here) [TEDW]

>  <Units label>
µg/mL

>  <MIC S. aureus>
20

$$$$

Req: Any idea what its MIC S. aureus is? The substance is FYCNGKRVCVCR--NH2 (FYCNGKRVCVCR-NH2; cysteine pairing not given here) [TEDF]
Resp: 5

Req: May I ask what MIC S. aureus has been recorded for AYCNGKRVCVCR--NH2 (AYCNGKRVCVCR-NH2; cysteine pairing not given here) [TEDA] ?
Resp: 10

----------
Let's look at some substances and their measured MIC S. aureus.
Tested on: Staphylococcus aureus (ATCC 6538)
Experiment: MIC test, antibacterial activity
Type: cell-based
Conditions: Table 1, peptide fragments of Tenecin
Method: Antibacterial and antifungal activities of the peptides were determined by employing MIC test as follows: […] Antibacterial activity of peptide was determined analogously as above, with an exception that Staphylococcus aureus (ATCC 6538) selected as a test organism was cultured on M-3 medium(Gibco, USA) at 37° C. and cell number was adjusted to 2×10^8 cells before 100-fold dilution.
No end group written: not given here.

As a guide, the following entries are already answered.
>  <Substance>
LSVEAKGVKLGGGYCNGKRVCVCR--NH2 (LSVEAKGVKLGGGYCNGKRVCVCR-NH2; cysteine pairing not given here) [TEQ]

>  <MIC S. aureus>
> 500 mg/L

$$$$
>  <Substance>
DAACAAHHCLFR--NH2 (DAACAAHHCLFR-NH2; cysteine pairing not given here) [TEA]

>  <MIC S. aureus>
> 500 mg/L

$$$$

Let's switch to this substance now.
Req: Field request: MIC S. aureus | item: VTCDILSSVEAKGVKL--NH2 (VTCDILSSVEAKGVKL-NH2) [TEC]
Resp: > 500 mg/L
